The reported numbers originate from patent US20260146073A1.

target: T1, WT p16INK4a (CDKN2A) peptide on HLA-A*02:01 (human); assay: cytokine release
T1 peptide: LPVDLAEEL
Measured endpoint: binding result

4286 TCR 10-4 (TCR, V domains shown) Valpha: QSVSQHNHHVILSEAASLELGCNYSYGGTVNLFWYVQYPGQHLQLLLKYFSGDPLVKGIKGFEAEFIKSKFSFNLRKPSVQWSDTAEYFCAVKDTGFQKLVFGTGTRLLVSP Vbeta: GAVVSQHPSWVICKSGTSVKIECRSLDFQATTMFWYRQFPKQSLMLMATSNEGSKATYEQGVEKDKFLINHASLTLSTLTVTSAHPEDSSFYICSARGGARSYEQYFGPGTRLTVT :: no recognition
4286 TCR 10-3 (TCR, V domains shown) Valpha: QSVSQHNHHVILSEAASLELGCNYSYGGTVNLFWYVQYPGQHLQLLLKYFSGDPLVKGIKGFEAEFIKSKFSFNLRKPSVQWSDTAEYFCAVKDTGFQKLVFGTGTRLLVSP Vbeta: GAVVSQHPSWVICKSGTSVKIECRSLDFQATTMFWYRQFPKQSLMLMATSNEGSKATYEQGVEKDKFLINHASLTLSTLTVTSAHPEDSSFYICSARGGRNSFEQFFGPGTRLTVL :: no recognition
4286 TCR 10-1 (TCR, V domains shown) Valpha: QKEVEQNSGPLSVPEGAIASLNCTYSDRGSQSFFWYRQYSGKSPELIMFIYSNGDKEDGRFTAQLNKASQYVSLLIRDSQPSDSATYLCAVKSWVIFGKGTRLHILP Vbeta: GVTQSPTHLIKTRGQQVTLRCSPISGHKSVSWYQQVLGQGPQFIFQYYEKEERGRGNFPDRFSARQFPNYSSELNVNALLLGDSALYLCASSPSAQSSYGYTFGSGTRLTVV :: no recognition
